pIC50: −log10 of the molar value.
Below are pIC50 values measured for Cathepsin B (Homo sapiens).
measuredParameter: pIC50

[
  {
    "molecule": "CCCC[C@@H](CC)COC(=O)c1ccccc1C(=O)OC[C@@H](CC)CCCC [BIS(2-ETHYLHEXYL)PHTHALATE]",
    "obsValue": 3.42
  },
  {
    "molecule": "CCCCOC(=O)c1ccccc1C(=O)OCCCC [DIBUTYL PHTHALATE]",
    "obsValue": 3.38
  }
]

---

targetEntity: Cathepsin B (Mus musculus)
Sequence (P10605 whole entry): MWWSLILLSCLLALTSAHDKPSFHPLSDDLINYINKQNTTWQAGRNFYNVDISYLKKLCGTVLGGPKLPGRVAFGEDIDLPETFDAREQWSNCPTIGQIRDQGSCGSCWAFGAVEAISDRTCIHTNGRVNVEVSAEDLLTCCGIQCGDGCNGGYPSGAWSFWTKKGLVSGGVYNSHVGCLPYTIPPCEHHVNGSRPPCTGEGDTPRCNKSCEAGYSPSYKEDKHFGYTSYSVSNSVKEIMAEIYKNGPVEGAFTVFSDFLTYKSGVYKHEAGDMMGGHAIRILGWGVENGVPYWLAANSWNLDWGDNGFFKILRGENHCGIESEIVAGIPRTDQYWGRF
runDescription: Inhibition of cathepsin B in mouse B16F10 cells

[
  {
    "compound": "CCCCOC(=O)c1ccccc1C(=O)OCCCC [DIBUTYL PHTHALATE]",
    "IC50 [µM]": 230
  },
  {
    "compound": "CCCC[C@@H](CC)COC(=O)c1ccccc1C(=O)OC[C@@H](CC)CCCC [BIS(2-ETHYLHEXYL)PHTHALATE]",
    "IC50 [µM]": 140
  }
]
